- Tested on: NCI-H226 lung
- ASSAY REMARKS: NCI tumour cell line growth inhibition, 48 h
Quick reference: TGI of the listed items.
READOUT LABEL: TGI

| COMPOUND | TEST RESULT |
| --- | --- |
| Cc1cc(C)n(C(C)(C(=O)Cc2ccccc2)n2nc(C)cc2C)n1 | > 100 µM |
| CCOc1ccc(N=Nc2c(-c3ccccc3)nn(C(=O)CC(=O)Nc3ccccc3Cl)c2-c2ccccc2)cc1 | > 100 µM |
| COC(=O)c1sc(=S)c2sc(C(=O)OC)c(C(=O)OC)c2c1C(=O)OC | > 100 µM |
| CC(=O)CCN1CC2CN=NC2(C#N)C1 (stereo not given) | > 70 µM |
| Cc1nc(Nc2ccc(Cl)c(Cl)c2)sc1C(/C=C/c1ccc2c(c1)OCO2)=N/Nc1ccc([N+](=O)[O-])cc1[N+](=O)[O-] | > 100 µM |

----------
- Test system: SK-MEL-5 melanoma
- ASSAY REMARKS: NCI tumour cell line growth inhibition, 48 h

| MOLECULE | TGI |
| --- | --- |
| CN=C1C=C(/N=C2/C=C(N/C(=C\C#N)C(C)(C)O)OC2(C)C)OC1(C)C | > 85.7 µM |
| O=C(/C=N/O)Nc1cccc(Cl)c1I | > 100 µM |
| NC(=O)C1C(=O)Oc2cccnc21 (stereo not given) | > 100 µM |
| Nc1c([N+](=O)[O-])ncn1C1OC(CO)C(O)C1O (stereo not given) | > 100 µM |
| COc1cc2c(cc1OC)C(C1CC1)ON(C)CC2 (stereo not given) | > 100 µM |

----------
- Tested on: SF-268 CNS
- ASSAY REMARKS: NCI tumour cell line growth inhibition, 48 h
Quick reference: TGI of the listed items.

| COMPOUND | TGI |
| --- | --- |
| COc1cc2c(cc1OC)C(C1CC1)ON(C)CC2 (stereo not given) | > 100 µM |
| Cc1cc(S(=O)(=O)NC2=NCc3c(F)cccc3N2)c(S)cc1Cl | > 100 µM |
| Cc1nc2sc(C(=O)Nc3cccc(Cl)c3)c(N)c2cc1C(O)c1ccccc1 (stereo not given) | 28.3 µM |
| O=C1Cc2c([nH]c3ccccc23)-c2cc(Br)ccc2N1 | > 100 µM |
| COc1cc(C(=O)/C=C/c2c(C)n([O-])c3ccc(Cl)cc3[n+]2=O)cc(OC)c1OC | 98.7 µM |
| O=C(Cn1ccnc1[N+](=O)[O-])NCc1ccc(F)cc1 | > 100 µM |
| Nc1nc2c([nH]1)c1[nH]c3ccccc3c1c1[nH]c3ccccc3c21 | 32.6 µM |
| FC(F)(Sc1ncccn1)c1nc2ccccc2o1 | > 100 µM |
| CCOC(=O)C(NC(=O)c1ccccc1)(Nc1ccc(S(=O)(=O)Nc2cc(C)on2)cc1)C(F)(F)F (stereo not given) | > 100 µM |
| COC(=O)[C@]1(c2cc3ccccc3[nH]2)CC2CNC1C1OC(C)(C)OC21 (stereo not given in full) | > 100 µM |

----------
- System: K-562 leukemia
- ASSAY REMARKS: NCI tumour cell line growth inhibition, 48 h
Quick reference: TGI of the listed items.

| MOLECULE | TGI |
| --- | --- |
| COc1cc(OC)c(OC)cc1/C=C\c1ccnc2ccccc12 | 31.3 µM |
| Cc1cn([C@H]2CN(O)C[C@@H](CO)O2)c(=O)[nH]c1=O | > 100 µM |
| Clc1ccc(-c2nn3c(COc4ccc(OCc5nnc6sc(-c7ccc(Cl)cc7)nn56)c(Cl)c4)nnc3s2)cc1 | > 100 µM |
| CC[P+](c1ccccc1)(N(C)C)N(C)C | > 100 µM |
| O=C(N[C@H]1CC2(C=C(I)C(=O)C(I)=C2)OC1=O)OCc1ccccc1 | 33.5 µM |
| CCOc1ccc(N=Nc2c(-c3ccccc3)nn(C(=O)CC(=O)Nc3ccccc3Cl)c2-c2ccccc2)cc1 | > 100 µM |
| CC(C)(C)c1cc(C(C)(C)C)c2sc(=O)oc2c1O | 30.4 µM |
| CCCCCCCC(=O)OC[n+]1cccc(-c2c(COC(=O)NC(C)C)c(COC(=O)NC(C)C)c3n2CCC3)c1 | > 100 µM |
| Cc1ccc(/C=C2\CCCC(C(NO)c3ccc(C)cc3)C2=NO)cc1 (stereo not given) | > 100 µM |
| COc1cc2c(cc1OCCN1CCN(CCOc3cc4c(cc3OC)C(=O)N3CCC[C@H]3C=N4)CC1)N=C[C@@H]1CCCN1C2=O | > 60.5 µM |
| NCC1OC(OC2C(N)CC(N)C(O)C2OC2OC(CO)C(O)C2O)C(N)C(O)C1O (stereo not given) | > 100 µM |
| CCOc1ccc(Nc2nc(N)nc(N)c2N=O)cc1 | > 100 µM |
| C=C1CCC2C(C)(CO)C(O)CCC2(C)C1C/C=C1\C(=O)OCC1O (stereo not given) | > 100 µM |
| Nc1c(-c2ccccc2)c2ccc([N+](=O)[O-])cc2c(=O)n1-c1cccc(C(=O)O)c1 | > 100 µM |
| COc1ccc(N=C2C(=O)Nc3ccc(Br)cc32)cc1 | 33.2 µM |
| Nc1ccc2c3c1cccc3c(=O)n1c3ccc(Cc4ccc5c(c4)nc4c6ccc(N)c7cccc(c(=O)n54)c76)cc3nc21 | > 100 µM |
| O=C(CN1CCCC1)Nc1ccc2c(c1)C1Oc3ccccc3CC1CO2 (stereo not given) | > 100 µM |
| CCOC(=O)/C(=C/c1cn(C(C)=O)c2ccccc12)P(=O)(OC)OC | > 100 µM |
| CCOC(=O)/C=C(/OCC)[C@@H]1C(C(=O)c2ccc(Cl)cc2)[C@@H]1/C(=C\C(=O)OCC)OCC (stereo not given in full) | > 22.3 µM |
| CC(=O)OCCc1cc2ccccc2oc1=O | > 100 µM |
| Nc1nc2c([nH]1)c1[nH]c3ccccc3c1c1[nH]c3ccccc3c21 | 5.09 µM |
| CCOC(=O)CC1(N)CC2c3ccccc3OC(=O)C2C(=O)N1 (stereo not given) | > 100 µM |
| CC1=NN(c2cc(Cl)c(S(=O)(=O)O)cc2Cl)C2(C1)C(Cl)C(=O)N2c1nc2ccccc2s1 (stereo not given) | > 100 µM |
| COc1ccc(C2NC(c3ccc(OC)cc3)C(C)C(=O)C2C)cc1 (stereo not given) | > 100 µM |
| CNC(=O)N(CCCCC(NC(C)=O)C(=O)NCc1ccccc1)Cc1ccccc1 (stereo not given) | > 100 µM |
| CN1CCN(Cc2ccc(C(=S)Nc3ccccc3)s2)CC1 | 95.9 µM |
| Cc1cc(=O)[nH]c2c1C(=O)c1c(C)cc(=O)n(C)c1C2=O | > 10 µM |
| COc1ccccc1CNCCCN1C(=O)c2ccc3c4c(ccc(c24)C1=O)C(=O)N(CCCNCCCCN)C3=O | 1.27 µM |
| c1ccc(CN2CCC(CNc3ncnc4ccccc34)C2)cc1 (stereo not given) | > 100 µM |
| C#CCN(CCCOc1ccc(Cl)cc1Cl)CCCSC(=O)CCCCCN1/C(=C\C=C2/CCCC(/C=C/C3=[N+](CCCCCC(=O)[O-])c4ccccc4C3(C)C)=C2Cl)C(C)(C)c2ccccc21 | > 100 µM |

----------
- System: SNB-75 CNS
- ASSAY REMARKS: NCI tumour cell line growth inhibition, 48 h; in the data active = GI50 below about 0.43 µM; inactive = the rest
Labels: TRUE for active, FALSE for inactive

| COMPOUND STRUCTURE | GROUP |
| --- | --- |
| CC[C@]1(O)C[C@@H]2CN(CCc3c([nH]c4ccccc34)[C@@](C(=O)OC)(c3cc4c(cc3OC)N(C)[C@H]3[C@@](O)(C(=O)OC)[C@H](OC(=O)CCCBr)[C@]5(CC)C=CCN6CC[C@]43[C@@H]65)C2)C1 | TRUE |
| OCCN1CCCN(CCCN2c3ccccc3Sc3ccc(C(F)(F)F)cc32)CC1 | FALSE |
| O=C(Cc1csc2nc(-c3ccc(Br)cc3)cn12)N/N=C/c1ccccc1O | FALSE |

----------
Quick reference: TGI of the listed items.
- Tested on: MDA-MB-231 breast
- ASSAY REMARKS: NCI tumour cell line growth inhibition, 48 h

| COMPOUND | TGI |
| --- | --- |
| Nc1c([N+](=O)[O-])ncn1C1OC(CO)C(O)C1O (stereo not drawn) | > 100 µM |
| CNc1ccc(CSc2ccc(C)cc2)cc1 | 11.7 µM |
| COC(=O)c1sc2c(Cl)c(Cl)sc2c1Cl | > 100 µM |
| COC1=C(OC)C(=O)C(Cc2c(-c3ccccc3)nc3sc(Cl)cn23)=C(C)C1=O | 24.6 µM |
| Clc1cc(Cl)cc(Nc2ccc3c(OCCCN4CCOCC4)cccc3n2)c1 | 3.94 µM |
| CC[P+](c1ccccc1)(N(C)C)N(C)C | > 100 µM |
| COc1cc(-c2cc(OC)c(OC)c3ccc(Br)cc23)c2cc(Br)ccc2c1OC | 49.5 µM |
| CN(Cc1cnc2nc(N)nc(N)c2n1)c1c(Cl)cc(C(=O)NC(CCC(=O)O)C(=O)O)cc1Br (stereo not drawn) | > 100 µM |
| COc1cc(C(=O)/C=C/c2c(C)n([O-])c3ccc(Cl)cc3[n+]2=O)cc(OC)c1OC | > 100 µM |
| Nc1ncnc2c1ncn2CCCNO | > 100 µM |
| COc1cc2c(cc1OC)C(C1CC1)ON(C)CC2 (stereo not drawn) | > 100 µM |
| CN(Cc1ccccc1)C(=S)S | > 100 µM |
| O=C(CN1CCCC1)Nc1ccc2c(c1)C1Oc3ccccc3CC1CO2 (stereo not drawn) | 75.7 µM |
| Fc1cccc(C2ON=C(c3ccccc3)N2C23CC4CC(CC(C4)C2)C3)c1 (stereo not drawn) | > 10 µM |
| CC(C)(C)[C@H]1NC(=O)CN1C(=O)OCc1ccccc1 | > 100 µM |
| CC1OC23CCCCC2C(C#N)(C#N)C1(C#N)C(=N)O3 (stereo not drawn) | 32.1 µM |
| CCOC(=O)/C=C(/OCC)[C@@H]1C(C(=O)c2ccc(Cl)cc2)[C@@H]1/C(=C\C(=O)OCC)OCC (stereo partly drawn) | > 100 µM |
| c1ccc2[nH]c(-c3cscn3)nc2c1 | > 100 µM |
